Origin of measurements: paper PMC5540273

System: CDK8;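 also: KINOMEscan kinase panel screen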
Details: concentration: 1 μM,replicates: in singlicate; n = 1
Each entry below carries its recorded %Inh.

| molecule | %Inh [%] |
| --- | --- |
| Nc1nc(Nc2ccccc2)cc(-c2ccc3c(N)n[nH]c3c2)n1 | 17 |
| Cl.Cl.Nc1nc(-c2ccc3c(N)n[nH]c3c2)cc(N2CCCC(NC(=O)c3ccccc3)C2)n1 (stereo not shown) | 11 |
| Cl.Cl.NC[C@H](Cc1ccc(C(F)(F)F)cc1)NC(=O)c1cc(Br)c(-c2ccnc3[nH]ccc23)s1 | 17 |
| Cc1ccc2c(-c3ccncc3)c(-c3ccc(F)cc3)nn2c1.Cl | 41 |
